Experiment: In vivo PK after oral administration in rats, incl. brain and plasma levels
Settings: rat, oral 10 mg/kg, sodium salt
observed.property: Vd (mL)

In [3]: df
Out[3]:
                                   molecule  observed_property  numeric_value
0  O=C(O)c1cc(-c2cccc(COc3ccc4c(=O)n(C5CC5)sc4c3)c2)ccc1Cl [Compound 3e]                 Vd            4.1
1  COc1ccc(C(=O)O)cc1-c1cccc(COc2ccc3c(c2)CN(C2CCCC2)C3=O)c1 [Compound 15a]                 Vd        10875.2
2  O=C(O)c1cc(-c2cccc(-c3ccc4c(c3)CN(C3CCCC3)C4=O)c2)ccc1Cl [Compound 24]                 Vd           96.2
3  O=C(O)c1cc(-c2cccc(COc3ccc4c(c3)CN(C3CCCC3)C4=O)c2)ccc1O [Compound 15b]                 Vd           28.0
